- MEASUREMENT_TARGET: UniProtKB P14780
- Sequence (P14780 whole entry): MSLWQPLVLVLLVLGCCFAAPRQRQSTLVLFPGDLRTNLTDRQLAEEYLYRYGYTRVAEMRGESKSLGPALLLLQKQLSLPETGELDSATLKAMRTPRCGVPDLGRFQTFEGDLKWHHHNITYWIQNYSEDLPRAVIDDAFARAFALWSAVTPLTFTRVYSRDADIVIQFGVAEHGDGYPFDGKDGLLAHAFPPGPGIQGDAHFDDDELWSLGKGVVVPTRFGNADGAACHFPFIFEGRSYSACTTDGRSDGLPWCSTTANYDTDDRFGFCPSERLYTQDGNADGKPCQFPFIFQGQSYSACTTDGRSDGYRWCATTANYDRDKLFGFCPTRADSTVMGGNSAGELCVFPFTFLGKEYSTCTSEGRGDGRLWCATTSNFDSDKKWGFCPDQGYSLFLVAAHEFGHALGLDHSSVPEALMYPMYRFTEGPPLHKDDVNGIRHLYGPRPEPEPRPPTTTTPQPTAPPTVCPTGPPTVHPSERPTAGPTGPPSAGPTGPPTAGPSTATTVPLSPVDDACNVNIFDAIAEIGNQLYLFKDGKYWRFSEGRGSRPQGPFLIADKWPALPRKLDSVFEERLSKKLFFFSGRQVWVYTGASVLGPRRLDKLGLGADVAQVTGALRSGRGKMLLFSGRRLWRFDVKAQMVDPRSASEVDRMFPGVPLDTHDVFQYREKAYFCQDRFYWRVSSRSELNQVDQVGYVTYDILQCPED
- PROCEDURE_SUMMARY: biochemical
- Type: cell-based
- EXPERIMENTAL_CONTEXT: read-out: IC50
EXPERIMENTAL_ENDPOINT: pIC50
// returns pIC50 (minus log10 of molar concentration), number only

Answer with reported pIC50 of Oc1ccccc1O
4.63

Give pIC50 for CS(=O)(=O)OCCCCOS(C)(=O)=O
5.28

---

- MEASUREMENT_TARGET: Beta-1 adrenergic receptor (Homo sapiens, UniProt P08588)
- Sequence (P08588 whole entry): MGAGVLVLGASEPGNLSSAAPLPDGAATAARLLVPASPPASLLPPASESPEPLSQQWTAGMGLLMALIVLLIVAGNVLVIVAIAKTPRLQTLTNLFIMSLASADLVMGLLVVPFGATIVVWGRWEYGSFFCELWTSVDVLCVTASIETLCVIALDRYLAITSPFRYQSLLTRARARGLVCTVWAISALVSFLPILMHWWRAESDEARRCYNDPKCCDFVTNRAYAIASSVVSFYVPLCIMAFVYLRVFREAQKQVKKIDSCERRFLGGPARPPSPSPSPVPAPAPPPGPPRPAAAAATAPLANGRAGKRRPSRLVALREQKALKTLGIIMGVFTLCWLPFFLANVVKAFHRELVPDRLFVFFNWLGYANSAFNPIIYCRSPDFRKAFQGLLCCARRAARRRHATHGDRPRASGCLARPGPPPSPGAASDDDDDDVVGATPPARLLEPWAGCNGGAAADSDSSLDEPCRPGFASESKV
- PROCEDURE_SUMMARY: DRUGMATRIX: Adrenergic beta1 radioligand binding (ligand: [125I] Cyanopindolol)
- Format: cell membranes, CHO-K1, Membrane
- EXPERIMENTAL_CONTEXT: cho-k1; Not Active = under 50% inhibition at 10 µM

{"COMPOUND_STRING": "CC[C@H]1OC(=O)[C@H](C)[C@@H](O[C@H]2C[C@@](C)(OC)[C@@H](O)[C@H](C)O2)[C@H](C)[C@@H](O[C@@H]2O[C@H](C)C[C@H](N(C)C)[C@H]2O)[C@](C)(OC)C[C@@H](C)C(=O)[C@H](C)[C@@H](O)[C@]1(C)O", "IC50": "Not Active"}
{"COMPOUND_STRING": "COc1cc(N)nc2[nH]c(-c3ccc(F)cc3)c(-c3ccncc3)c12", "IC50": "Not Active"}
{"COMPOUND_STRING": "C[C@]12C/C(=C/O)C(=O)C[C@@H]1CC[C@@H]1[C@@H]2CC[C@@]2(C)[C@H]1CC[C@]2(C)O", "IC50": "Not Active"}

---

- MEASUREMENT_TARGET: C-X-C chemokine receptor type 1 (Homo sapiens); also: in other assays of this panel Not Active means under 50% inhibition at 10 µM
- Sequence (P25024 whole entry): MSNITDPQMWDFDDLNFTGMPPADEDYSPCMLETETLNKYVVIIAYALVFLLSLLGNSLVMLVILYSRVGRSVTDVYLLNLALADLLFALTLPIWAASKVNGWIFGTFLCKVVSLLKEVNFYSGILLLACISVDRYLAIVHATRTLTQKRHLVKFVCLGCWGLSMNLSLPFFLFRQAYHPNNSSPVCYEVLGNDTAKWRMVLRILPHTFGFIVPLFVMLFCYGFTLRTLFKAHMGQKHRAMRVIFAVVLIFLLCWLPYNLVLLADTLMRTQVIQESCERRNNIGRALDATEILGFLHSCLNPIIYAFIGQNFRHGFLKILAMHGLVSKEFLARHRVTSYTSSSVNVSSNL
EXPERIMENTAL_ENDPOINT: IC50

{"MOLECULE": "NC[C@H]1O[C@H](O[C@H]2[C@H](O)[C@@H](O[C@H]3O[C@H](CO)[C@@H](O)[C@H](N)[C@H]3O)[C@H](N)C[C@@H]2N)[C@H](N)C[C@@H]1O", "OBS_VALUE": "Not Active"}
{"MOLECULE": "COC(=O)c1ccccc1O [METHYL SALICYLATE]", "OBS_VALUE": "Not Active"}
{"MOLECULE": "C=C(CC)C(=O)c1ccc(OCC(=O)O)c(Cl)c1Cl", "OBS_VALUE": "Not Active"}

---

- MEASUREMENT_TARGET: Muscarinic acetylcholine receptor M4 (Homo sapiens, UniProt P08173); also: in other assays of this panel Not Active means under 50% inhibition at 10 µM
- Sequence (P08173 whole entry): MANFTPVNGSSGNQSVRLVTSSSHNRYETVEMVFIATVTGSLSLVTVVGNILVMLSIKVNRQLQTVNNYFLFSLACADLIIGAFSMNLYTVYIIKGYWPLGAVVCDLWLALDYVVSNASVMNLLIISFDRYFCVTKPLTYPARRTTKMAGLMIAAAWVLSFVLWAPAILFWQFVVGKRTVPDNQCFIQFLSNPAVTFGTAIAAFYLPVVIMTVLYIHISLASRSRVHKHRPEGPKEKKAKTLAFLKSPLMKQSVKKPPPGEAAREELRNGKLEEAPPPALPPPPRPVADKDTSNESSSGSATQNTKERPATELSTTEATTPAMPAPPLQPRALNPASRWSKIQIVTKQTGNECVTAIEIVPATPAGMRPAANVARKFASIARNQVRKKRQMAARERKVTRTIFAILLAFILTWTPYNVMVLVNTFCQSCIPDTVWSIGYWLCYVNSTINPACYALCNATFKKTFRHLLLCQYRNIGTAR
- Assay type: cell membranes, CHO-K1, Membrane
- EXPERIMENTAL_CONTEXT: cho-k1
EXPERIMENTAL_ENDPOINT: Ki

Reference set, count: 4
{"SUBSTANCE": "INSULIN HUMAN", "MEASUREMENT_TARGET": "Muscarinic acetylcholine receptor M4 (Homo sapiens, UniProt P08173)", "Ki": "Not Active"}
{"SUBSTANCE": "COBALT(II) ACETYLACETONATE", "MEASUREMENT_TARGET": "Muscarinic acetylcholine receptor M4 (Homo sapiens, UniProt P08173)", "Ki": "Not Active"}
{"SUBSTANCE": "STANNOUS FLUORIDE", "MEASUREMENT_TARGET": "Muscarinic acetylcholine receptor M4 (Homo sapiens, UniProt P08173)", "Ki": "Not Active"}
{"SUBSTANCE": "POLYVINYL ALCOHOL", "MEASUREMENT_TARGET": "Muscarinic acetylcholine receptor M4 (Homo sapiens, UniProt P08173)", "Ki": "Not Active"}

# evaluate next
Under Muscarinic acetylcholine receptor M4 (Homo sapiens, UniProt P08173): report Ki of THIMEROSAL .
Not Active

---

- PROCEDURE_SUMMARY: DRUGMATRIX: Atrial Natriuretic Factor (ANF) radioligand binding (ligand: [125I] ANF (rat))
- Type: cell membranes, Cavia porcellus, Dunkin-Hartley, Adrenal gland, Membrane
- EXPERIMENTAL_CONTEXT: Not Active = under 50% inhibition at 10 µM
EXPERIMENTAL_ENDPOINT: IC50

Known results for compounds:
{"COMPOUND": "CO[C@H]1[C@@H](O)[C@H](N)[C@@H](O[C@H]2O[C@H]([C@H](C)N)CC[C@H]2N)[C@H](O)[C@@H]1N(C)C(=O)CN [ASTROMICIN]", "IC50": "Not Active"}
{"COMPOUND": "CC(C)C[C@H]1C(=O)N2CCC[C@H]2[C@]2(O)O[C@](NC(=O)[C@@H]3C=C4c5cccc6[nH]c(Br)c(c56)C[C@H]4N(C)C3)(C(C)C)C(=O)N12 [BROMOCRIPTINE]", "IC50": "Not Active"}
{"COMPOUND": "CN[C@@H]1[C@H](O)[C@H](NC)[C@H]2O[C@@]3(O)C(=O)C[C@@H](C)O[C@H]3O[C@@H]2[C@H]1O [SPECTINOMYCIN]", "IC50": "Not Active"}
{"COMPOUND": "CO[C@@]1(NC(=O)CSCC#N)C(=O)N2C(C(=O)O)=C(CSc3nnnn3C)CS[C@@H]21 [CEFMETAZOLE]", "IC50": "Not Active"}
{"COMPOUND": "Nc1ccc(S(=O)(=O)Nc2nccs2)cc1 [SULFATHIAZOLE]", "IC50": "Not Active"}
{"COMPOUND": "C=C(C)[C@H]1Cc2c(ccc3c2O[C@@H]2COc4cc(OC)c(OC)cc4[C@@H]2C3=O)O1 [ROTENONE]", "IC50": "Not Active"}

# return recorded IC50 for entry C[C@@H](O)[C@H]1C(=O)N2C(C(=O)O)=C(S[C@@H]3CN[C@H](C(=O)N(C)C)C3)[C@H](C)[C@H]12 [MEROPENEM]
Not Active

---

- MEASUREMENT_TARGET: Substance-K receptor (Homo sapiens, UniProt P21452); also: in other assays of this panel Not Active means under 50% inhibition at 10 µM
- Sequence (P21452 whole entry): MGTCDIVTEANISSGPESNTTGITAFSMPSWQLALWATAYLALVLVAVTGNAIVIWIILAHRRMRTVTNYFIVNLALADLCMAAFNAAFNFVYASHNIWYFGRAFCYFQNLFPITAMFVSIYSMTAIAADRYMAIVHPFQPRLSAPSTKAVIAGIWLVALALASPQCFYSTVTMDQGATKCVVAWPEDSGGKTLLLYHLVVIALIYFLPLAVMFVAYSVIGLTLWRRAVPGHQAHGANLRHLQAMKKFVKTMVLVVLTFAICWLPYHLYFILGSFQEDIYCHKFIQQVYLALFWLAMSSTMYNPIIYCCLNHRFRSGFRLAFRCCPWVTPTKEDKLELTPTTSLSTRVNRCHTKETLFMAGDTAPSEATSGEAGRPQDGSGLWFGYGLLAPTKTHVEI
- Assay type: cell membranes, CHO, Membrane
- EXPERIMENTAL_CONTEXT: read-out: Ki
EXPERIMENTAL_ENDPOINT: Ki
Provide the measurement as a number trailed by its unit.

Retrieve Ki on Substance-K receptor (Homo sapiens, UniProt P21452); query CC[C@H](C)C(=O)O[C@H]1C[C@@H](C)C=C2C=C[C@H](C)[C@H](CC[C@@H]3C[C@@H](O)CC(=O)O3)[C@H]21
9.41 µM

Find Ki for C#C[C@]1(O)CC[C@H]2[C@@H]3CCC4=Cc5oncc5C[C@]4(C)[C@H]3CC[C@@]21C on Substance-K receptor (Homo sapiens, UniProt P21452) and write it down.
8.86 µM

Jot down Ki (Substance-K receptor (Homo sapiens, UniProt P21452)) of OCCN1CCN(CCCN2c3ccccc3Sc3ccc(C(F)(F)F)cc32)CC1 .
7.49 µM

---

- MEASUREMENT_TARGET: Adenosine receptor A3 (Homo sapiens); also: in other assays of this panel Not Active means under 50% inhibition at 10 µM;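 also: radioligand binding assay with AB-MECA serving as the labeled ligand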
- Sequence (P0DMS8 whole entry): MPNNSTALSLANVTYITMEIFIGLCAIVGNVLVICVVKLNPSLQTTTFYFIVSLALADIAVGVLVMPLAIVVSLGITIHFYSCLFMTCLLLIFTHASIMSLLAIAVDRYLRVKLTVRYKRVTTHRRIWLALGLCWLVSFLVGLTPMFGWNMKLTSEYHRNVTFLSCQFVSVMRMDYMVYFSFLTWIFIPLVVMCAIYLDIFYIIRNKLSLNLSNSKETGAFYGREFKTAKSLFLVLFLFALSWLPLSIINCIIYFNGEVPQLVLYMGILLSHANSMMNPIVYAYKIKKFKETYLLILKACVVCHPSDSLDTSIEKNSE
- Type: cell membranes, CHO-K1, Membrane
- EXPERIMENTAL_CONTEXT: cho-k1
EXPERIMENTAL_ENDPOINT: IC50

{"MOLECULE": "C[C@@H]1C[C@H]2[C@@H]3CCC4=CC(=O)C=C[C@]4(C)C3=CC[C@]2(C)[C@H]1C(=O)CN1CCN(c2cc(N3CCCC3)nc(N3CCCC3)n2)CC1", "OBS_VALUE": "Not Active"}
{"MOLECULE": "CC(C(=O)O)c1ccc(-c2ccccc2)c(F)c1 (stereo not drawn)", "OBS_VALUE": "Not Active"}
{"MOLECULE": "CCn1cc(C(=O)O)c(=O)c2cc(F)c(N3CCNCC3)nc21", "OBS_VALUE": "Not Active"}
{"MOLECULE": "CC[C@@H](CO)NC(=O)[C@@H]1C=C2c3cccc4c3c(cn4C)C[C@H]2N(C)C1 [METHYSERGIDE]", "OBS_VALUE": "Not Active"}
{"MOLECULE": "C/C=C\\c1ccc(O)c(OC)c1", "OBS_VALUE": "Not Active"}

Could you please provide reported IC50 for CC(=O)O[C@]1(C(C)=O)CC[C@H]2[C@@H]3C=C(Cl)C4=CC(=O)[C@@H]5C[C@@H]5[C@]4(C)[C@H]3CC[C@@]21C [CYPROTERONE ACETATE] ? Thanks!
Not Active

Tell me measured IC50 for CNS(=O)(=O)Cc1ccc2[nH]cc(CCN(C)C)c2c1 please.
Not Active

Report IC50, nothing else, for this molecule: O=C(O)c1cccnc1
Not Active
